# ASSAY_COMMENT: Tissue distribution in rats after oral administration
# Assay type: in vivo, male Sprague-Dawley rats
# CONDITIONS: male, Sprague-Dawley, rat, colon lumen content, PO 25 mg/kg, 1 h, average, N = 3, read-out: Colon Content concentration
PROPERTY_MEASURED: concentration at 1 h (ng/mL)
Kindly provide the numeric value in ng/mL only, without the unit symbol.

Report concentration at 1 h for CC(C)(O)CNC(=O)Cc1nc2cnc3[nH]ccc3c2n1[C@H]1CC[C@H](CC#N)CC1
135

----------
# ASSAY_COMMENT: Tissue distribution in rats after oral administration
# Assay type: in vivo, male Sprague-Dawley rats
# CONDITIONS: male, Sprague-Dawley, rat, duodenum tissue, PO 25 mg/kg, 24 h, average, N = 3, read-out: Duod. Tissue concentration
PROPERTY_MEASURED: concentration at 24 h (ng/g)
Kindly provide the numeric value in ng/g only, without the unit symbol.

Report concentration at 24 h for CC(C)(O)CNC(=O)Cc1nc2cnc3[nH]ccc3c2n1[C@H]1CC[C@H](CC#N)CC1
17
